Molecular target: T1, HIV-1 Tat 25-mer peptide (tat25) (Human immunodeficiency virus 1, UniProt P69698 SEQ:1-25)
T1 chain: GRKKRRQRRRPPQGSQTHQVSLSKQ
Test: EMSA; 1:1 KD; repeated in Table 4 under tat37 heading
Conditions: protein: synthetic, tags: peptide fragment, label: 32P, hairpin, stem-bulge-loop
measure_name: pKd
Numbers only, as −log10 of the molar value.

Lookup result for GCCAGAUCUGAGCCUGGGAGCUCUCUGGC (ssRNA) [deltaTAR29 #3153 (16-45 -A17)] ; measured pKd: 7.76
